Consider the following molecules; for each one, report its Fold change in IC50 (IC50 [Drug + Cobicistat]/IC50 [Drug]).
# Test system: DU 145
# Test: Cell proliferation assay (ATPlite), drug with vs without cobicistat
# Assay type: cell-based
# Protocol conditions: DU 145 cell line; 120 hours incubation
Give the quantity in fold, number only.

query: Can you share its Fold change in IC50 (IC50 [Drug + Cobicistat]/IC50 [Drug])? I mean this molecule: CC(=O)O[C@@]12CO[C@@H]1C[C@H](O)[C@@]1(C)C(=O)[C@H](O)C3=C(C)[C@@H](OC(=O)[C@H](O)[C@@H](NC(=O)OC(C)(C)C)c4ccccc4)C[C@@](O)([C@@H](OC(=O)c4ccccc4)[C@H]21)C3(C)C
result: 4.8

query: Can you share its Fold change in IC50 (IC50 [Drug + Cobicistat]/IC50 [Drug])? I mean this molecule: CC[C@]1(O)C[C@@H]2CN(CCc3c([nH]c4ccccc34)[C@@](C(=O)OC)(c3cc4c(cc3OC)N(C)[C@H]3[C@@](O)(C(=O)OC)[C@H](OC(C)=O)[C@]5(CC)C=CCN6CC[C@]43[C@@H]65)C2)C1
result: 5.4

query: Can you share its Fold change in IC50 (IC50 [Drug + Cobicistat]/IC50 [Drug])? I mean this molecule: COc1cccc2c1C(=O)c1c(O)c3c(c(O)c1C2=O)C[C@@](O)(C(=O)CO)C[C@@H]3O[C@H]1C[C@H](N)[C@H](O)[C@H](C)O1
result: 2.1

query: Can you share its Fold change in IC50 (IC50 [Drug + Cobicistat]/IC50 [Drug])? I mean this molecule: Cc1nc(Nc2ncc(C(=O)Nc3c(C)cccc3Cl)s2)cc(N2CCN(CCO)CC2)n1
result: 3.6

query: Can you share its Fold change in IC50 (IC50 [Drug + Cobicistat]/IC50 [Drug])? I mean this molecule: CC(=O)O[C@H]1C(=O)[C@@]2(C)[C@H]([C@H](OC(=O)c3ccccc3)[C@]3(O)C[C@H](OC(=O)[C@H](O)[C@@H](NC(=O)c4ccccc4)c4ccccc4)C(C)=C1C3(C)C)[C@]1(OC(C)=O)CO[C@@H]1C[C@@H]2O
result: 4.8

query: Can you share its Fold change in IC50 (IC50 [Drug + Cobicistat]/IC50 [Drug])? I mean this molecule: CC[C@]1(O)C[C@H]2CN(CCc3c([nH]c4ccccc34)[C@@](C(=O)OC)(c3cc4c(cc3OC)N(C=O)[C@H]3[C@@](O)(C(=O)OC)[C@H](OC(C)=O)[C@]5(CC)C=CCN6CC[C@]43[C@@H]65)C2)C1
result: 3.8

---

# System: CAL 27
# Test: Cell proliferation assay (ATPlite), drug with vs without cobicistat
# Assay type: cell-based
# Protocol conditions: CAL 27 cell line; 120 hours incubation
Consider the following compounds; for each one, report its Fold change in IC50 (IC50 [Drug + Cobicistat]/IC50 [Drug]).
Give the quantity in fold, number only.

query: Can you share its Fold change in IC50 (IC50 [Drug + Cobicistat]/IC50 [Drug])? I mean this compound: Cc1nc(Nc2ncc(C(=O)Nc3c(C)cccc3Cl)s2)cc(N2CCN(CCO)CC2)n1 [dasatinib]
result: 1.3

query: Can you share its Fold change in IC50 (IC50 [Drug + Cobicistat]/IC50 [Drug])? I mean this compound: CC(=O)O[C@H]1C(=O)[C@@]2(C)[C@H]([C@H](OC(=O)c3ccccc3)[C@]3(O)C[C@H](OC(=O)[C@H](O)[C@@H](NC(=O)c4ccccc4)c4ccccc4)C(C)=C1C3(C)C)[C@]1(OC(C)=O)CO[C@@H]1C[C@@H]2O [paclitaxel]
result: 2.0

query: Can you share its Fold change in IC50 (IC50 [Drug + Cobicistat]/IC50 [Drug])? I mean this compound: CC(=O)O[C@@]12CO[C@@H]1C[C@H](O)[C@@]1(C)C(=O)[C@H](O)C3=C(C)[C@@H](OC(=O)[C@H](O)[C@@H](NC(=O)OC(C)(C)C)c4ccccc4)C[C@@](O)([C@@H](OC(=O)c4ccccc4)[C@H]21)C3(C)C [docetaxel]
result: 1.4

query: Can you share its Fold change in IC50 (IC50 [Drug + Cobicistat]/IC50 [Drug])? I mean this compound: CC[C@]1(O)C[C@@H]2CN(CCc3c([nH]c4ccccc34)[C@@](C(=O)OC)(c3cc4c(cc3OC)N(C)[C@H]3[C@@](O)(C(=O)OC)[C@H](OC(C)=O)[C@]5(CC)C=CCN6CC[C@]43[C@@H]65)C2)C1 [vinblastine]
result: 2.8

query: Can you share its Fold change in IC50 (IC50 [Drug + Cobicistat]/IC50 [Drug])? I mean this compound: CC[C@]1(O)C[C@H]2CN(CCc3c([nH]c4ccccc34)[C@@](C(=O)OC)(c3cc4c(cc3OC)N(C=O)[C@H]3[C@@](O)(C(=O)OC)[C@H](OC(C)=O)[C@]5(CC)C=CCN6CC[C@]43[C@@H]65)C2)C1 [vincristine]
result: 2.6

query: Can you share its Fold change in IC50 (IC50 [Drug + Cobicistat]/IC50 [Drug])? I mean this compound: COc1cccc2c1C(=O)c1c(O)c3c(c(O)c1C2=O)C[C@@](O)(C(=O)CO)C[C@@H]3O[C@H]1C[C@H](N)[C@H](O)[C@H](C)O1 [doxorubicin]
result: 1.9

---

# Tested on: AsPC-1
# Test: Cell proliferation assay (ATPlite), drug with vs without cobicistat
# Format: cell-based
# Protocol conditions: AsPC-1 cell line; 120 hours incubation
# Condition met = Fold change in IC50 (IC50 [Drug + Cobicistat]/IC50 [Drug]) below 2 fold (exclusive); Condition not met = Fold change in IC50 (IC50 [Drug + Cobicistat]/IC50 [Drug]) at/above 2 fold

query: In plain terms, does CC(=O)O[C@@]12CO[C@@H]1C[C@H](O)[C@@]1(C)C(=O)[C@H](O)C3=C(C)[C@@H](OC(=O)[C@H](O)[C@@H](NC(=O)OC(C)(C)C)c4ccccc4)C[C@@](O)([C@@H](OC(=O)c4ccccc4)[C@H]21)C3(C)C come in under 2 fold for Fold change in IC50 (IC50 [Drug + Cobicistat]/IC50 [Drug])?
result: Condition not met

query: In plain terms, does Cc1nc(Nc2ncc(C(=O)Nc3c(C)cccc3Cl)s2)cc(N2CCN(CCO)CC2)n1 come in under 2 fold for Fold change in IC50 (IC50 [Drug + Cobicistat]/IC50 [Drug])?
result: Condition met

query: In plain terms, does COc1cccc2c1C(=O)c1c(O)c3c(c(O)c1C2=O)C[C@@](O)(C(=O)CO)C[C@@H]3O[C@H]1C[C@H](N)[C@H](O)[C@H](C)O1 come in under 2 fold for Fold change in IC50 (IC50 [Drug + Cobicistat]/IC50 [Drug])?
result: Condition met

query: In plain terms, does CC[C@]1(O)C[C@@H]2CN(CCc3c([nH]c4ccccc34)[C@@](C(=O)OC)(c3cc4c(cc3OC)N(C)[C@H]3[C@@](O)(C(=O)OC)[C@H](OC(C)=O)[C@]5(CC)C=CCN6CC[C@]43[C@@H]65)C2)C1 come in under 2 fold for Fold change in IC50 (IC50 [Drug + Cobicistat]/IC50 [Drug])?
result: Condition not met

query: In plain terms, does CC(=O)O[C@H]1C(=O)[C@@]2(C)[C@H]([C@H](OC(=O)c3ccccc3)[C@]3(O)C[C@H](OC(=O)[C@H](O)[C@@H](NC(=O)c4ccccc4)c4ccccc4)C(C)=C1C3(C)C)[C@]1(OC(C)=O)CO[C@@H]1C[C@@H]2O come in under 2 fold for Fold change in IC50 (IC50 [Drug + Cobicistat]/IC50 [Drug])?
result: Condition not met

query: In plain terms, does CC[C@]1(O)C[C@H]2CN(CCc3c([nH]c4ccccc34)[C@@](C(=O)OC)(c3cc4c(cc3OC)N(C=O)[C@H]3[C@@](O)(C(=O)OC)[C@H](OC(C)=O)[C@]5(CC)C=CCN6CC[C@]43[C@@H]65)C2)C1 come in under 2 fold for Fold change in IC50 (IC50 [Drug + Cobicistat]/IC50 [Drug])?
result: Condition not met

---

# Tested on: U-2 OS
# Test: Cell proliferation assay (ATPlite), drug with vs without cobicistat
# Format: cell-based
# Protocol conditions: U-2 OS cell line; 120 hours incubation
Quantity measured: Fold change in IC50 (IC50 [Drug + Cobicistat]/IC50 [Drug]) (fold)
Give the quantity in fold, number only.

query: Can you share its Fold change in IC50 (IC50 [Drug + Cobicistat]/IC50 [Drug])? I mean this compound: CC(=O)O[C@H]1C(=O)[C@@]2(C)[C@H]([C@H](OC(=O)c3ccccc3)[C@]3(O)C[C@H](OC(=O)[C@H](O)[C@@H](NC(=O)c4ccccc4)c4ccccc4)C(C)=C1C3(C)C)[C@]1(OC(C)=O)CO[C@@H]1C[C@@H]2O [paclitaxel]
result: 3.2

query: Can you share its Fold change in IC50 (IC50 [Drug + Cobicistat]/IC50 [Drug])? I mean this compound: CC[C@]1(O)C[C@H]2CN(CCc3c([nH]c4ccccc34)[C@@](C(=O)OC)(c3cc4c(cc3OC)N(C=O)[C@H]3[C@@](O)(C(=O)OC)[C@H](OC(C)=O)[C@]5(CC)C=CCN6CC[C@]43[C@@H]65)C2)C1 [vincristine]
result: 3.5

query: Can you share its Fold change in IC50 (IC50 [Drug + Cobicistat]/IC50 [Drug])? I mean this compound: Cc1nc(Nc2ncc(C(=O)Nc3c(C)cccc3Cl)s2)cc(N2CCN(CCO)CC2)n1 [dasatinib]
result: 4.0

query: Can you share its Fold change in IC50 (IC50 [Drug + Cobicistat]/IC50 [Drug])? I mean this compound: CC(=O)O[C@@]12CO[C@@H]1C[C@H](O)[C@@]1(C)C(=O)[C@H](O)C3=C(C)[C@@H](OC(=O)[C@H](O)[C@@H](NC(=O)OC(C)(C)C)c4ccccc4)C[C@@](O)([C@@H](OC(=O)c4ccccc4)[C@H]21)C3(C)C [docetaxel]
result: 4.3

query: Can you share its Fold change in IC50 (IC50 [Drug + Cobicistat]/IC50 [Drug])? I mean this compound: CC[C@]1(O)C[C@@H]2CN(CCc3c([nH]c4ccccc34)[C@@](C(=O)OC)(c3cc4c(cc3OC)N(C)[C@H]3[C@@](O)(C(=O)OC)[C@H](OC(C)=O)[C@]5(CC)C=CCN6CC[C@]43[C@@H]65)C2)C1 [vinblastine]
result: 4.4

query: Can you share its Fold change in IC50 (IC50 [Drug + Cobicistat]/IC50 [Drug])? I mean this compound: COc1cccc2c1C(=O)c1c(O)c3c(c(O)c1C2=O)C[C@@](O)(C(=O)CO)C[C@@H]3O[C@H]1C[C@H](N)[C@H](O)[C@H](C)O1 [doxorubicin]
result: 3.0
